Ref: PubChem BioAssay (NCI)

Test system: RXF 393 renal
test: NCI tumour cell line growth inhibition, 48 h; in the data active = GI50 below about 0.43 µM; inactive = the rest
Outcome codes: active, inactive

- compound: "Cn1c(C(N)=O)cc2c1-c1nc(Nc3ccccc3)ncc1CCC2"
  answer label: "inactive"
- compound: "N#CC1=C(N)Oc2cc3c(cc2C1c1cccs1)OCO3 (configuration not stated)"
  answer label: "active"
- compound: "OCCN(CCO)N=Nc1ccc(-c2nc3ccccc3[nH]2)cc1"
  answer label: "inactive"
- compound: "O=C1c2ccccc2-c2c1c1ccccc1c(=O)n2CCCNCCCn1c2c(c3ccccc3c1=O)C(=O)c1ccccc1-2"
  answer label: "inactive"
- compound: "COc1ccc(C(=O)Cn2c(C(=O)c3ccc(Cl)cc3)nc3ccccc32)cc1"
  answer label: "inactive"
- compound: "COc1ccc(C(=O)Cn2c(C(=O)c3ccc(OC)cc3)nc3ccccc32)cc1"
  answer label: "inactive"
- compound: "COC(=O)/C=C/c1cc(O)c2c(c1)C(C(=O)OC)C(c1ccc(O)c(O)c1)O2 (configuration not stated)"
  answer label: "active"
- compound: "CCNC(=O)C[C@@H]1N=C(c2ccc(Cl)cc2)c2cc(OC)ccc2-n2c(C)nnc21"
  answer label: "inactive"
- compound: "CCC/C(=N\\NC(=S)N1CCN(c2ccccn2)CC1)c1ccccn1"
  answer label: "active"
- compound: "C=C1C(=O)O[C@@H]2C[C@@H]1CC[C@]1(C)O[C@H]1CC[C@@]1(C)O[C@@H]1CC[C@@]2(C)O"
  answer label: "inactive"
- compound: "COc1ccc(C(=O)/C=C/c2ccc(O)c(O)c2F)c(OC)c1"
  answer label: "inactive"
- compound: "O=C(Nc1ccc(S(=O)(=O)Nc2nccs2)cc1)c1cccnc1Nc1cccc(Cl)c1"
  answer label: "inactive"

----------
Test system: LOX IMVI melanoma
test: NCI tumour cell line growth inhibition, 48 h
value type: TGI

- compound: "Cc1ccc(-c2c(C#N)c(-c3ccc(Cl)cc3)c(C#N)c(=O)n2NS(=O)(=O)c2ccccc2)cc1"
  reported measurement: "> 100 µM"
- compound: "Nc1ccccc1C#CC#Cc1ccccc1N"
  reported measurement: "19.4 µM"
- compound: "COc1cccc(N2C(=O)c3c(c4[nH]c5ccccc5c4c4ccc(C(C)(C)C)cc34)C2=O)c1"
  reported measurement: "> 100 µM"
- compound: "CN/N=C(/Cc1occc(=O)c1O)C(=O)Nc1ccc(C)c(C)c1"
  reported measurement: "> 100 µM"
- compound: "CCN1C(=O)C/C(=C\\C(C)=O)Nc2ccccc21"
  reported measurement: "> 100 µM"
- compound: "CC(Cn1c2c3ccccc3ccc2c2oc(=O)c3ccccc3c21)N(C)C (stereo unspecified)"
  reported measurement: "> 100 µM"
- compound: "O=C1c2ccccc2-c2c1c1ccccc1c(=O)n2Cc1ccco1"
  reported measurement: "> 100 µM"
- compound: "CN1C2CCC1CC(OC(c1ccccc1)c1ccccc1)C2 (stereo unspecified)"
  reported measurement: "29.4 µM"
- compound: "CC(=O)OCC1OC(On2ccccc2=S)C(OC(C)=O)C(OC(C)=O)C1OC(C)=O (stereo unspecified)"
  reported measurement: "> 100 µM"
- compound: "Oc1cccc2c1NC1=C(CCC/C1=C\\c1ccccc1)C2"
  reported measurement: "> 100 µM"
- compound: "CCN1CC2=C(N=c3s/c(=C\\c4ccc(Cl)cc4)c(=O)n3C2c2ccc(Cl)cc2)/C(=C/c2ccc(Cl)cc2)C1 (stereo unspecified)"
  reported measurement: "> 100 µM"
- compound: "CN(C)/[N+]([O-])=N/Oc1cc(Nc2cccc(C(=O)O)c2)c([N+](=O)[O-])cc1[N+](=O)[O-]"
  reported measurement: "> 100 µM"
- compound: "NCc1ccc(-c2ccc(-c3ccc(-c4ccc(CN)s4)s3)s2)s1"
  reported measurement: "> 100 µM"
- compound: "N#CC1=C(N)Oc2cc3c(cc2C1c1cccs1)OCO3 (stereo unspecified)"
  reported measurement: "> 61.3 µM"
- compound: "Cc1ccc(NC(=O)c2[nH]c(=S)nc(N)c2-c2ccccc2C)cc1C"
  reported measurement: "> 100 µM"
- compound: "COc1cc(NS(C)(=O)=O)ccc1NCc1cnc2ccc3[nH]c(C)ccc3c12"
  reported measurement: "> 100 µM"
- compound: "CC(=O)/C(C=Nc1c(C)n(C)n(-c2ccccc2)c1=O)=C(/C)O"
  reported measurement: "> 100 µM"
- compound: "CNc1ncnc(Sc2nc(N)nc3nc[nH]c23)c1[N+](=O)[O-]"
  reported measurement: "12.2 µM"
- compound: "COc1ccc(/C=C2\\C=Cc3ccccc32)cc1OC"
  reported measurement: "> 100 µM"
- compound: "CNc1ccccc1C(=O)N/N=C/C=C/c1ccccc1"
  reported measurement: "> 100 µM"
- compound: "COc1ccc(C(=O)Cn2c(C(=O)c3ccc(Cl)cc3)nc3ccccc32)cc1"
  reported measurement: "> 100 µM"
